Target: TGR (Schistosoma mansoni, UniProt Q962Y6)
Construct: made in house
Sequence (Q962Y6 1-598): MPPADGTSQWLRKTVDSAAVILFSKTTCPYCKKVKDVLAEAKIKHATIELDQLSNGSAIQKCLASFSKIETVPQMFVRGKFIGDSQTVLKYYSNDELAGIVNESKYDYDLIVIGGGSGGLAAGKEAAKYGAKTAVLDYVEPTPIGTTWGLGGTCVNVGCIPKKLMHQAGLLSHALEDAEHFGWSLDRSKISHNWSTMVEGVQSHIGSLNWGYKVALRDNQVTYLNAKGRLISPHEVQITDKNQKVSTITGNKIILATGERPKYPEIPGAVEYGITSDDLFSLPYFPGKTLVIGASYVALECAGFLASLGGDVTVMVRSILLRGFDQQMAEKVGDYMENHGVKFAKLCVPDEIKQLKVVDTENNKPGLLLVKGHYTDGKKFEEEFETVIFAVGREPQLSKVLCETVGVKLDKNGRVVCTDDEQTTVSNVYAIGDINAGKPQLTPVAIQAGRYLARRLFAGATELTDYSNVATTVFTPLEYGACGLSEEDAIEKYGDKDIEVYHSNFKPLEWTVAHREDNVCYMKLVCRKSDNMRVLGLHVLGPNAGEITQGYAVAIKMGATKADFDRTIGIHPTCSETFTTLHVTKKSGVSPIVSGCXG
Assay: Thermal shift assay (TSA)
Format: binding
Parameters: key: Tm in °C, from a 25–95 °C melt curve
Conditions: TGR + 100 µM compound
Procedure: Samples were prepared by using a final concentration of 0.25 mg/ml TGR diluted in TGR reaction buffer to the desired volume. To evaluate reduced TGR, 500 µM NADPH was added. […] After the preincubation period, 20 µL samples were pipetted into a BioRad un-skirted PCR 96 well plate and sealed with MicroAmp^TM Optical Adhesive film. […] The SYBR green channel was used to detect fluorescence as the wavelength of flavin fluorescence overlaps with that of SYBR green. […]
# Avg. Tm values compiled below
// return just the number, without any unit appended

Below are worked cases with known answers.
compound | Avg. Tm
Cc1oc(-c2ccccc2)nc1CN[C@@H]1C[C@@H]2C[C@H]([C@H]1C)C2(C)C | 73.5
C[C@@H]1[C@H]2C[C@@H](C[C@H]1NCc1cc(-c3ccccc3)[nH]n1)C2(C)C | 73.5
Cc1oc(-c2ccc3ccccc3c2)nc1CNC1CCCCCC1 | 73.5
CC1C(NCc2cn(C3OCC(O)C(O)C3O)c3ccccc23)CC2CC1C2(C)C (centres unmarked) | 74.8
Cc1oc(C2CCCCC2)nc1C(=O)N[C@@H]1C[C@@H]2C[C@H]([C@H]1C)C2(C)C | 73.6667

QUERY: Look up Avg. Tm for this compound: `C[C@@H]1[C@H]2C[C@@H](C[C@H]1NCc1nc3ccccc3n1C)C2(C)C`
RESULT: 73.5

QUERY: Look up Avg. Tm for this compound: `C[C@@H]1[C@H]2C[C@@H](C[C@H]1NCc1nc3ccccc3n1C1CCCCCC1)C2(C)C`
RESULT: 73.8333

QUERY: Look up Avg. Tm for this compound: `Cc1oc(-c2ccc3c(c2)OCO3)nc1CN[C@@H]1C[C@@H]2C[C@H]([C@H]1C)C2(C)C`
RESULT: 73.67

====

test system: S. mansoni newly transformed schistosomula (NTS); assay: Schistosomicidal activity ex vivo, NTS (Cell Titer Glo); type: cell-based; conditions: Schistosoma mansoni
reported-endpoint: viability at 1 µM (%)
Answer format: numeric, % implied, no suffix.

compound | measured-on | scale-unit | viability at 1 µM
Cc1oc(-c2ccc3c(c2)OCO3)nc1CN[C@@H]1C[C@@H]2C[C@H]([C@H]1C)C2(C)C | S. mansoni newly transformed schistosomula (NTS) | % | 89.9
C[C@@H]1[C@H]2C[C@@H](C[C@H]1NCc1nc3ccccc3n1C1CCCCCC1)C2(C)C | S. mansoni newly transformed schistosomula (NTS) | % | 91.9
CCc1ccccc1-c1nc(CN[C@@H]2C[C@@H]3C[C@H]([C@H]2C)C3(C)C)c(C)o1 | S. mansoni newly transformed schistosomula (NTS) | % | 47.9
Cc1oc(C2CCCCC2)nc1C(=O)N[C@@H]1C[C@@H]2C[C@H]([C@H]1C)C2(C)C | S. mansoni newly transformed schistosomula (NTS) | % | 85.7

In the following, a different compound is considered.
QUERY: Look up viability at 1 µM for this compound: C[C@@H]1N=C(c2ccccc2Cl)c2cc([N+](=O)[O-])ccc2NC1=O [MZM, meclonazepam, reference compound]
RESULT: 87.2
